Entries and their inhibition at 10 µM
- test.target: CDK4 (Homo sapiens, UniProt P11802)
- Construct: endogenous in cells; host or cells: Calu-1
- Sequence (P11802 2-303 limits assumed): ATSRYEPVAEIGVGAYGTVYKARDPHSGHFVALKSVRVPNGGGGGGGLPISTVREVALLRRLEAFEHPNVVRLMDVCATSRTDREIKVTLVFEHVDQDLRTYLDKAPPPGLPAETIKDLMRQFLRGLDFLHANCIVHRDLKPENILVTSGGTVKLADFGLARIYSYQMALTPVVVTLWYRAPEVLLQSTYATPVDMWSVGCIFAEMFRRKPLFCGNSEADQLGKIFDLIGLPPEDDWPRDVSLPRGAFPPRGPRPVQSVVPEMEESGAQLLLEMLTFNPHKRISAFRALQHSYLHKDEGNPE
- Sequence (P24385 whole entry partner): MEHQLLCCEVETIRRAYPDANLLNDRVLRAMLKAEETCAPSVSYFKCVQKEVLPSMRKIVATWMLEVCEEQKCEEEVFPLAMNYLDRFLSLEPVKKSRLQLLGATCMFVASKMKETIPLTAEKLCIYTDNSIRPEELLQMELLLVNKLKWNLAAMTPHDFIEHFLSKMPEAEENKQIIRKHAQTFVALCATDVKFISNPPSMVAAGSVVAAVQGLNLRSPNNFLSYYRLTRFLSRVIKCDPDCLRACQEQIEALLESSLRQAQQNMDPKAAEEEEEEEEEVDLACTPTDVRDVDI
- Sequence (Q16531 2-1140 limits assumed, further chain): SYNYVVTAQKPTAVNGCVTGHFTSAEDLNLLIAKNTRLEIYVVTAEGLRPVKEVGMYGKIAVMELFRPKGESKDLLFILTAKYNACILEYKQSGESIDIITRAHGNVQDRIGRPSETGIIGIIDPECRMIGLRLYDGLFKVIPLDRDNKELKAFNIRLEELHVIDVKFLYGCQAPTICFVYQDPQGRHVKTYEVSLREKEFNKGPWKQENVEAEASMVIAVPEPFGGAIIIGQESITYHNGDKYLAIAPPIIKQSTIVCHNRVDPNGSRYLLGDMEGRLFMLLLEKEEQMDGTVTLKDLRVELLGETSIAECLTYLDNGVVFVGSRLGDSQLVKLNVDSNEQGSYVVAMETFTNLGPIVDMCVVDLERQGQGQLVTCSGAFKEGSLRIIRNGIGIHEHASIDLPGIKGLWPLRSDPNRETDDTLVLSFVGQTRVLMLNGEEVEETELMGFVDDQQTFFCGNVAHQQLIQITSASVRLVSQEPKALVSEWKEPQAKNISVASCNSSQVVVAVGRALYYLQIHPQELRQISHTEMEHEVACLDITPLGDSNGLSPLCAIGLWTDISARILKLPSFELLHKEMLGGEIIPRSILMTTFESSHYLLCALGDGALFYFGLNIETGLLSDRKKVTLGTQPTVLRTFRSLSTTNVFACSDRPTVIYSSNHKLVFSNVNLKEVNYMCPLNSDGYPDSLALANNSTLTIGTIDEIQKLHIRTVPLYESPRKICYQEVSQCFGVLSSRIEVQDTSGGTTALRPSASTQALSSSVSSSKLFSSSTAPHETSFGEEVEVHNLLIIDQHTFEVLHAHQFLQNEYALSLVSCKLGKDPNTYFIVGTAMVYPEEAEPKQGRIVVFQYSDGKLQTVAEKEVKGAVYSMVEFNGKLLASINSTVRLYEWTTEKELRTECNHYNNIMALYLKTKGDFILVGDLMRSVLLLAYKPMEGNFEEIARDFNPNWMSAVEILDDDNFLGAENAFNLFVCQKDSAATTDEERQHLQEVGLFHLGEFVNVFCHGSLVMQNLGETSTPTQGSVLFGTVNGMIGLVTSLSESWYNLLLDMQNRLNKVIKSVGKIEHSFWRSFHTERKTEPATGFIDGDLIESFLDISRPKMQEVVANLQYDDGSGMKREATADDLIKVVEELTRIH
- method.description: CDK4 percentage degradation in Calu-1 cells (immunoblotting)
- Format: cell-based
- setup.conditions: Calu-1 cells, 10 μM, 16 hours; read-out: CDK4 Degradation (10 μM)
quantity.measured: inhibition at 10 µM

Cc1nc(NC(=O)c2ccccc2NC(=O)CCOCCOCCNC(=O)CN2CCN(c3ccc(Nc4ncc5cc(C(=O)N(C)C)n(C6CCCC6)c5n4)nc3)CC2)sc1C [CPD-295] ... 50 to 80%
Cc1nc(NC(=O)c2ccccc2NC(=O)CCOCCOCCOCCOCCNC(=O)CN2CCN(Cc3ccc(Nc4ncc(F)c(-c5cc(F)c6nc(C)n(C(C)C)c6c5)n4)nc3)CC2)sc1C [CPD-283] ... < 30%
Cc1nc(NC(=O)c2ccccc2NC(=O)CCCCCNC(=O)CN2CCN(c3ccc(Nc4ncc(F)c(-c5cc(F)c6nc(C)n(C(C)C)c6c5)n4)nc3)CC2)sc1C [CPD-304] ... < 30%
Cc1nc(NC(=O)c2ccccc2NC(=O)CCOCCOCCOCCOCCOCCOCCNC(=O)CN2CCN(c3ccc(Nc4ncc5cc(C(=O)N(C)C)n(C6CCCC6)c5n4)nc3)CC2)sc1C [CPD-299] ... 30 to 50%
Cc1nc(NC(=O)c2ccccc2NC(=O)CCOCCOCCOCCOCCOCCOCCNC(=O)CN2CCN(c3ccc(Nc4ncc5cc6n(c5n4)C4(CCCCC4)CNC6=O)nc3)CC2)sc1C [CPD-327] ... 50 to 80%

---

- test.target: CDK4 (Homo sapiens)
- Construct: endogenous in cells; host or cells: Calu-1
- method.description: CDK4 percentage degradation in Calu-1 cells (immunoblotting)
- Format: cell-based
- setup.conditions: Calu-1 cells, 200 nM, 16 hours; read-out: CDK4 Degradation (200 nM)
quantity.measured: inhibition at 0.2 µM

CC(=O)c1c(C)c2cnc(Nc3ccc(N4CCN(C(=O)CCCCCCNc5cccc(C(=O)Nc6nc(C)c(C)s6)c5C)CC4)cn3)nc2n(C2CCCC2)c1=O [CPD-138] ... < 30%
CCc1nc(NC(=O)c2ccccc2NC(=O)CCOCCOCCNC(=O)CN2CCN(c3ccc(Nc4ncc5c(C)c(C(C)=O)c(=O)n(C6CCCC6)c5n4)nc3)CC2)sc1C [CPD-075] ... > 80%
CC(=O)c1c(C)c2cnc(Nc3ccc(N4CCN(CC(=O)NCCOCCOCCOCCNc5cccc(C(=O)Nc6nc(C)c(C)s6)c5C)CC4)cn3)nc2n(C2CCCC2)c1=O [CPD-105] ... 50 to 80%
CC(=O)c1c(C)c2cnc(Nc3ccc(N4CCN(CC(=O)NCCOCCOCCOCCOCCOCCNc5ccc(C(=O)Nc6nc(Br)c(C)s6)c(C)c5)CC4)cn3)nc2n(C2CCCC2)c1=O [CPD-044] ... 50 to 80%
CC(=O)c1c(C)c2cnc(Nc3ccc(N4CCN(CC(=O)NCCOCCOCCC(=O)Nc5cc(Br)ccc5C(=O)Nc5nc(C)c(C)s5)CC4)cn3)nc2n(C2CCCC2)c1=O [CPD-144] ... 50 to 80%

---

- test.target: DDB1 (Homo sapiens, UniProt Q16531, D705G/DEL396-460/DEL463-701/I704S/T703N)
- Construct: His6 (N, cleaved yes); TEV protease cleavage site (N, cleaved yes); made in house; host or cells: SF9 insect cells, Bac-to-Bac baculovirus, pFastBacHTB vector
- Sequence (Q16531 other isoform, or with tags, fused parts or gaps DEL396-460/DEL463-701/T703N/I704S/D705G): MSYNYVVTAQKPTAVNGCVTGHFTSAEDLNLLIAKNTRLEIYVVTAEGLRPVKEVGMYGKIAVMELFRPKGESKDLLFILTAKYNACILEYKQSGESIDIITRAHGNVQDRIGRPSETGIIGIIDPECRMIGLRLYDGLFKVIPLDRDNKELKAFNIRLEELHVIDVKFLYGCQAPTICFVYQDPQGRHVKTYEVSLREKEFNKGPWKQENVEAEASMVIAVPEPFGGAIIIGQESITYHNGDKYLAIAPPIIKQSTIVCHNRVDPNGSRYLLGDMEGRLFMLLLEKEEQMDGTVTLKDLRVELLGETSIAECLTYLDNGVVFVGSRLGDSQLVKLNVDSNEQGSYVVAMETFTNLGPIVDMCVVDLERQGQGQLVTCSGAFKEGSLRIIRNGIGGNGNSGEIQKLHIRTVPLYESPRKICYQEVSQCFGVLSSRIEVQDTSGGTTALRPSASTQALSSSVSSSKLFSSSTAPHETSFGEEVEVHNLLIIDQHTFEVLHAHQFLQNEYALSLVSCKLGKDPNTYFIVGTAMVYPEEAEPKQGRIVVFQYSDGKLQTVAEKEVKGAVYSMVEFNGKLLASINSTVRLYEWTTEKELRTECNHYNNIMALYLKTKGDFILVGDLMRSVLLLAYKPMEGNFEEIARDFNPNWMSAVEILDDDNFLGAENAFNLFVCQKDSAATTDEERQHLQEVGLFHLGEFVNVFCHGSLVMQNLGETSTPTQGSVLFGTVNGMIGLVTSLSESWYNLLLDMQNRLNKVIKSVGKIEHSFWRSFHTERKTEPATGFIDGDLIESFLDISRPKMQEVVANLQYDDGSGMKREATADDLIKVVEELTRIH
- method.description: SPR binding assay to immobilized DDB1ΔBPB
- setup.conditions: binding affinities to DDB1
quantity.measured: Kd

Cc1cc(NCCOCCOCCOCCOCCOCCN)ccc1C(=O)Nc1nc(C)c(C)s1 ... < 20 µM
CC(=O)Nc1ccccc1C(=O)Nc1ccc(N(C)C)nn1 ... 20 to 50 µM
Cc1ccccc1C(=O)Nc1nc(C(C)C)c(C)s1 ... 50 to 100 µM
Cc1cnc(NC(=O)c2ccc(NCCOCCOCCOCCOCCOCCNC(=O)CN3CCN(c4ccc(Nc5ncc(F)c(-c6cc(F)c7nc(C)n(C(C)C)c7c6)n5)nc4)CC3)cc2C)s1 ... 20 to 50 µM
COC(=O)c1nc(NC(=O)c2ccccc2C)sc1C ... < 20 µM
Cc1ccccc1C(=O)Nc1nc(C)c(C)s1 ... > 100 µM
CC(=O)c1c(C)c2cnc(N(C)c3ccc(N4CCN(CC(=O)NCCOCCOCCOCCOCCOCCNc5ccc(C(=O)Nc6nc(C)c(C)s6)c(C)c5)CC4)cn3)nc2n(C2CCCC2)c1=O ... 20 to 50 µM
CC(=O)c1c(C)c2cnc(Nc3ccc(N4CCN(CC(=O)NCCOCCOCCOCCOCCOCCNc5ccc(C(=O)Nc6nc(Br)c(C)s6)c(C)c5)CC4)cn3)nc2n(C2CCCC2)c1=O ... < 20 µM
Cc1ccccc1C(=O)Nc1cc(C)n(C)n1 ... > 100 µM

---

- test.target: CDK4 (Homo sapiens)
- Construct: endogenous in cells; host or cells: Calu-1
- method.description: CDK4 percentage degradation in Calu-1 cells (immunoblotting)
- Format: cell-based
- setup.conditions: Calu-1, 16 h, read-out: CDK4 Degradation (200 nM)
quantity.measured: inhibition at 0.2 µM

CC(=O)c1c(C)c2cnc(Nc3ccc(N4CCN(CCCCCOCCOCCNc5cccc(C(=O)Nc6nc(C)c(C)s6)c5C)CC4)cn3)nc2n(C2CCCC2)c1=O ... < 30%
CC(=O)c1c(C)c2cnc(Nc3ccc(N4CCN(C(=O)CCOCCOCCC(=O)Nc5ccccc5C(=O)Nc5nc(C)c(C)s5)CC4)cn3)nc2n(C2CCCC2)c1=O ... 50 to 80%
CC(=O)c1c(C)c2cnc(Nc3ccc(N4CCN(C(=O)CCOCCNc5cccc(C(=O)Nc6nc(C)c(C)s6)c5C)CC4)cn3)nc2n(C2CCCC2)c1=O ... < 30%

---

Entries and their Kd
- test.target: DDB1 (Homo sapiens, UniProt Q16531, D705G/DEL396-460/DEL463-701/I704S/T703N)
- Construct: His6 (N, cleaved yes); TEV protease cleavage site (N, cleaved yes); made in house; host or cells: SF9 insect cells, Bac-to-Bac baculovirus, pFastBacHTB vector
- method.description: SPR binding assay to immobilized DDB1ΔBPB
- setup.conditions: binding affinities to DDB1
quantity.measured: Kd

Cc1ccccc1C(=O)Nc1nc(Br)c(C)s1 ... > 100 µM
CC(=O)c1c(C)c2cnc(N(C)c3ccc(N4CCN(CC(=O)NCCOCCOCCOCCOCCOCCNc5ccc(C(=O)Nc6ncc(C)s6)c(C)c5)CC4)cn3)nc2n(C2CCCC2)c1=O ... < 20 µM
CC(=O)Nc1ccccc1C(=O)Nc1nc(C)c(C)s1 ... 20 to 50 µM
CC(=O)c1c(C)c2cnc(Nc3ccc(N4CCN(CC(=O)NCCOCCOCCC(=O)Nc5ccccc5C(=O)Nc5nc(C)c(C)s5)CC4)cn3)nc2n(C2CCCC2)c1=O ... < 20 µM
Cc1cnc(NC(=O)c2ccc(NCCOCCOCCOCCOCCOCCNC(=O)CN3CCN(c4ccc(Nc5ncc6cc(C(=O)N(C)C)n(C7CCCC7)c6n5)nc4)CC3)cc2C)s1 ... 50 to 100 µM
Cc1ccccc1C(=O)Nc1nc(C2CC2)c(C)s1 ... > 100 µM
CC(=O)NCCOCCOCCNc1cccc(C(=O)Nc2nc(C)c(C)s2)c1C ... < 20 µM
CC(=O)c1c(C)c2cnc(Nc3ccc(N4CCN(CC(=O)NCCOCCOCCOCCC(=O)Nc5ccccc5C(=O)Nc5nc(C)c(C)s5)CC4)cn3)nc2n(C2CCCC2)c1=O ... < 20 µM
CC(=O)c1c(C)c2cnc(Nc3ccc(N4CCN(CC(=O)NCCOCCOCCOCCOCCOCCNc5ccc(C(=O)Nc6nccs6)c(C)c5)CC4)cn3)nc2n(C2CCCC2)c1=O ... < 20 µM
CC(=O)NCCCCCCCCC(=O)Nc1ccccc1C(=O)Nc1nc(C)c(C)s1 ... 20 to 50 µM
CC(=O)c1c(C)c2cnc(Nc3ccc(N4CCN(CC(=O)NCCOCCOCCOCCOCCOCCNc5ccc(C(=O)Nc6nc(C)c(C)s6)c(C)c5)CC4)cn3)nc2n(C2CCCC2)c1=O ... < 20 µM
COC(=O)c1nc(NC(=O)c2ccc(NCCOCCOCCOCCOCCOCCN)cc2C)sc1C ... < 20 µM
CCc1nc(NC(=O)c2ccccc2C)sc1C ... 20 to 50 µM
CC(=O)c1c(C)c2cnc(Nc3ccc(N4CCN(CC(=O)NCCOCCOCCOCCOCCOCCNc5ccc(C(=O)Nc6nc(C7CC7)c(C)s6)c(C)c5)CC4)cn3)nc2n(C2CCCC2)c1=O ... < 20 µM

---

- test.target: CDK4 (Homo sapiens)
- Construct: endogenous in cells; host or cells: Calu-1
- method.description: CDK4 percentage degradation in Calu-1 cells (immunoblotting)
- Assay type: cell-based
- setup.conditions: Calu-1 cells, 10 μM, 16 hours; read-out: CDK4 Degradation (10 μM)
Entries and their inhibition at 10 µM
quantity.measured: inhibition at 10 µM

Cc1nc(NC(=O)c2ccccc2NC(=O)CCNC(=O)CN2CCN(Cc3ccc(Nc4ncc(F)c(-c5cc(F)c6nc(C)n(C(C)C)c6c5)n4)nc3)CC2)sc1C ... < 30%
Cc1cnc(NC(=O)c2ccc(NCCOCCOCCOCCOCCOCCNC(=O)CN3CCN(c4ccc(Nc5ncc6cc(C(=O)N(C)C)n(C7CCCC7)c6n5)nc4)CC3)cc2C)s1 ... > 80%
Cc1nc(NC(=O)c2ccccc2NC(=O)CCOCCOCCOCCOCCOCCOCCNC(=O)CN2CCN(c3ccc(Nc4ncc(F)c(-c5cc(F)c6nc(C)n(C(C)C)c6c5)n4)nc3)CC2)sc1C ... < 30%
Cc1nc(NC(=O)c2ccccc2NC(=O)CCCCCCCCNC(=O)CN2CCN(Cc3ccc(Nc4ncc(F)c(-c5cc(F)c6nc(C)n(C(C)C)c6c5)n4)nc3)CC2)sc1C ... < 30%
Cc1nc(NC(=O)c2ccccc2NC(=O)CCCCCNC(=O)CN2CCN(c3ccc(Nc4ncc5cc6n(c5n4)C4(CCCCC4)CNC6=O)nc3)CC2)sc1C ... 30 to 50%
